Test system: sicklepod (Cassia obtusifolia, CASOB)
Assay: Pre-emerge test, greenhouse herbicide activity screening
Assay type: in vivo
Settings: 250 g ai/ha; phytotoxicity rating 0-100, 14 days after application

{"compound": "Cc1ccc(-n2c(=O)cc(C(F)(F)F)n(C)c2=O)c(NC(=O)c2ccc3ccccc3c2)c1", "Pre-emerge Herbicidal Activity CASOB": 0}
{"compound": "Cn1c(C(F)(F)F)cc(=O)n(-c2ccc(Cl)cc2NC(=O)C2CC2)c1=O", "Pre-emerge Herbicidal Activity CASOB": 75}
{"compound": "Cn1c(C(F)(F)F)cc(=O)n(-c2ccc(OC(F)(F)F)cc2NC(=O)c2ccc3ccccc3c2)c1=O", "Pre-emerge Herbicidal Activity CASOB": 90}
{"compound": "COc1c(Cl)cc(F)c(-n2c(=O)cc(C(F)(F)F)n(C)c2=O)c1NC(=O)OCc1ccc2c(c1)OCO2", "Pre-emerge Herbicidal Activity CASOB": 100}
{"compound": "Cc1c(Cl)cc(F)c(-n2c(=O)cc(C(F)(F)F)n(C)c2=O)c1NC(=O)OCc1ccccc1Cl", "Pre-emerge Herbicidal Activity CASOB": 80}
{"compound": "COc1c(Cl)cc(F)c(-n2c(=O)cc(C(F)(F)F)n(C)c2=O)c1NC(=O)C1CC1", "Pre-emerge Herbicidal Activity CASOB": 60}
{"compound": "COc1c(Cl)cc(F)c(-n2c(=O)cc(C(F)(F)F)n(C)c2=O)c1NC(=O)OCc1cc(F)ccc1F", "Pre-emerge Herbicidal Activity CASOB": 90}
{"compound": "COc1c(Cl)cc(F)c(-n2c(=O)cc(C(F)(F)F)n(C)c2=O)c1NC(=O)OC(C)c1ccccc1 (centres unmarked)", "Pre-emerge Herbicidal Activity CASOB": 70}

----------
Tested on: barnyardgrass (Echinochloa crus-galli, ECHCG)
Experiment: Post-emerge test, greenhouse herbicide activity screening
Type: in vivo
Conditions: 63 g ai/ha; post-emerge; 14 days after application; rating scale 0-100
metric: Post-emerge Herbicidal Activity ECHCG (phytotoxicity rating)

{"compound": "COc1c(Cl)cc(F)c(-n2c(=O)cc(C(F)(F)F)n(C)c2=O)c1NN=CC1CC1 [Compound 15-11]", "testTarget": "barnyardgrass (Echinochloa crus-galli, ECHCG)", "testResult": 50}
{"compound": "COCC(C)=NNc1c(OC)c(Cl)cc(F)c1-n1c(=O)cc(C(F)(F)F)n(C)c1=O [15-13]", "testTarget": "barnyardgrass (Echinochloa crus-galli, ECHCG)", "testResult": 20}
{"compound": "COc1c(Cl)cc(F)c(-n2c(=O)cc(C(F)(F)F)n(C)c2=O)c1NN=C(C(F)(F)F)C(F)(F)F [15-21]", "testTarget": "barnyardgrass (Echinochloa crus-galli, ECHCG)", "testResult": 60}
{"compound": "COc1c(Cl)cc(F)c(-n2c(=O)cc(C(F)(F)F)n(C)c2=O)c1OC(=O)c1ccc2ccccc2c1 [Compound 16-7]", "testTarget": "barnyardgrass (Echinochloa crus-galli, ECHCG)", "testResult": 0}

----------
Test system: upland rice (Oryza sp., var. Tebonnet, RICE)
Experiment: Post-emerge test, crop safety
Assay type: in vivo
Details: post-emerge, 250 g ai/ha, 14 days after application, rating scale 0-100

{"compound": "Cn1c(C(F)(F)F)cc(=O)n(-c2c(F)cc(OC(F)F)cc2NC(=O)c2ccc3ccccc3c2)c1=O", "RICE phytotoxicity rating (crop damage)": 10}
{"compound": "CCCSCC(=O)Nc1c(OC)c(Cl)cc(F)c1-n1c(=O)cc(C(F)(F)F)n(C)c1=O", "RICE phytotoxicity rating (crop damage)": 20}
{"compound": "COc1c(Cl)cc(F)c(-n2c(=O)cc(C(F)(F)F)n(C)c2=O)c1NC(=O)CSc1ccc2ccccc2c1", "RICE phytotoxicity rating (crop damage)": 10}
{"compound": "COc1c(Cl)cc(F)c(-n2c(=O)cc(C(F)(F)F)n(C)c2=O)c1NC(=O)CCc1cc(C)ccc1C [2-130]", "RICE phytotoxicity rating (crop damage)": 25}

src = patent US6355799B1
